Origin of measurements: paper PMC12530842

- assay.target: GRK2 (Homo sapiens)
- Construct: made in house
- Sequence (P25098 1-689): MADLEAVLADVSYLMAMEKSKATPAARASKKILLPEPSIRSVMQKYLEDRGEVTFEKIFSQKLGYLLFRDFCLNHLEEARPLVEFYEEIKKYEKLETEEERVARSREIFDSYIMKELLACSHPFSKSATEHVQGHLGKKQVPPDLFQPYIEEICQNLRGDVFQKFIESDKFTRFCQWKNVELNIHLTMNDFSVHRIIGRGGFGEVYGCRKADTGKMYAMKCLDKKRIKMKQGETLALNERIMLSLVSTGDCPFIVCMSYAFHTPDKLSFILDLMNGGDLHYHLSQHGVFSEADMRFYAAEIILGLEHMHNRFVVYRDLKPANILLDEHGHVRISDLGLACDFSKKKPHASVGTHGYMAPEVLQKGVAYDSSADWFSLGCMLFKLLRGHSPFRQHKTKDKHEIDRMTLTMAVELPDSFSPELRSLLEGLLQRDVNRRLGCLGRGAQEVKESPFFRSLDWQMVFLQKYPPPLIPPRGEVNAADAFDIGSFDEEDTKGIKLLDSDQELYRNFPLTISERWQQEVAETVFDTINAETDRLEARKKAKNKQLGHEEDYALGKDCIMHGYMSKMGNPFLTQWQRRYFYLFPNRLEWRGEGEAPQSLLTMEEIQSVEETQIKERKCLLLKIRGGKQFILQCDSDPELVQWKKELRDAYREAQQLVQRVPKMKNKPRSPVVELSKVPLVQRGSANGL
- assay.comment: GRK2 kinase inhibition assay, phosphorylation of tubulin ([γ-32P]-ATP)
- Format: biochemical
- experimental.context: phosphorylation of the soluble substrate tubulin; ± standard deviation from 3 to 4 independent experiments
property.name: IC50 (µM)
Report the value in µM with no unit label.

The cases that follow already have their IC50 on record.
Cc1[nH]c(/C=C2\C(=O)Nc3ccc(C(=O)N[C@H](C)c4ccc(F)cc4)cc32)c(C)c1NC(=O)[C@H]1CN(C(=O)OC(C)(C)C)CCN1; 35
Cc1[nH]c(/C=C2\C(=O)Nc3ccc(C(=O)N[C@H](C)c4ccc(F)cc4)cc32)c(C)c1NC(=O)[C@H]1CCCNC1; 0.11
Cc1[nH]c(/C=C2\C(=O)Nc3ccc(C(=O)N[C@H](C)c4ccc(F)cc4)cc32)c(C)c1NC(=O)[C@H]1CCCCN1C(=O)OC(C)(C)C; 1.2
Cc1[nH]c(/C=C2\C(=O)Nc3ccc(C(=O)N[C@H](C)c4ccc(F)cc4)cc32)c(C)c1NC(=O)[C@H]1CCCN1C(=O)OC(C)(C)C; 160
Cc1[nH]c(/C=C2\C(=O)Nc3ccc(C(=O)N[C@H](C)c4ccc(F)cc4)cc32)c(C)c1NC(=O)[C@@H]1CCCN1; 0.08
Cc1[nH]c(C=C2C(=O)Nc3ccc(C(=O)NC(C)c4ccc(F)cc4)cc32)c(C)c1NC(=O)C1C=CCN1C(=O)OC(C)(C)C (stereo not shown); 120
CC(=O)N1CCC[C@@H]1C(=O)Nc1c(C)[nH]c(/C=C2\C(=O)Nc3ccc(C(=O)N[C@H](C)c4ccc(F)cc4)cc32)c1C; 0.32
Cc1[nH]c(/C=C2\C(=O)Nc3ccc(C(=O)N[C@H](C)c4ccc(F)cc4)cc32)c(C)c1NC(=O)[C@@H]1CNCCN1; 0.19
Cc1[nH]c(/C=C2\C(=O)Nc3ccc(C(=O)N[C@H](C)c4ccc(F)cc4)cc32)c(C)c1NC(=O)[C@H]1CCCN1; 0.1
Cc1[nH]c(/C=C2\C(=O)Nc3ccc(C(=O)N[C@H](C)c4ccc(F)cc4)cc32)c(C)c1NC(=O)[C@H]1CCC(=O)N1; 2.1

Enquiry: Request - read-out IC50 | tested on GRK2 (Homo sapiens) | compound CC(=O)N1CCCC1C(=O)Nc1c(C)[nH]c(C=C2C(=O)Nc3ccc(C(=O)NC(C)c4ccc(F)cc4)cc32)c1C (stereo not shown)
Return: 0.9

Enquiry: Another compound to look at: `Cc1[nH]c(/C=C2\C(=O)Nc3ccc(C(=O)N[C@H](C)c4ccc(F)cc4)cc32)c(C)c1NC(=O)[C@@H]1C=CCN1`
Return: 0.48

Enquiry: Another compound to look at: `Cc1[nH]c(/C=C2\C(=O)Nc3ccc(C(=O)N[C@H](C)c4ccc(F)cc4)cc32)c(C)c1NC(=O)[C@@H]1CCN(C(=O)OC(C)(C)C)C1`
Return: 300

Enquiry: Another compound to look at: `Cc1[nH]c(/C=C2\C(=O)Nc3ccc(C(=O)N[C@H](C)c4ccc(F)cc4)cc32)c(C)c1NC(=O)[C@@H]1CCCNC1`
Return: 0.62

Enquiry: Another compound to look at: `Cc1[nH]c(/C=C2\C(=O)Nc3ccc(C(=O)N[C@H](C)c4ccc(F)cc4)cc32)c(C)c1NC(=O)[C@H]1CCCN(C(=O)OC(C)(C)C)C1`
Return: 6.2

Enquiry: Another compound to look at: `Cc1[nH]c(/C=C2\C(=O)Nc3ccc(C(=O)N[C@H](C)c4ccc(F)cc4)cc32)c(C)c1NC(=O)[C@@H]1CCCN(C(=O)OC(C)(C)C)C1`
Return: 610

Enquiry: Another compound to look at: `Cc1[nH]c(/C=C2\C(=O)Nc3ccc(C(=O)N[C@H](C)c4ccc(F)cc4)cc32)c(C)c1NC(=O)[C@@H]1CCC(=O)N1`
Return: 0.71

Enquiry: Another compound to look at: `Cc1[nH]c(/C=C2\C(=O)Nc3ccc(C(=O)N[C@H](C)c4ccc(F)cc4)cc32)c(C)c1NC(=O)[C@@H]1CCCCN1C(=O)OC(C)(C)C`
Return: 100

Enquiry: Another compound to look at: `Cc1[nH]c(/C=C2\C(=O)Nc3ccc(C(=O)N[C@H](C)c4ccc(F)cc4)cc32)c(C)c1NC(=O)[C@H]1CNCCN1`
Return: 0.21
